Across several publications, the following IC50 results were reported for BDNF/NT-3 growth factors receptor (Homo sapiens, UniProt Q16620).
Kindly answer with a numeric value in nM, unit omitted.

Give the reported value of IC50 for this record: CC(C)N1CCN(c2cc(-c3cc(OC(C)C(F)(F)F)c4c(N)n[nH]c4c3)ccc2C(N)=O)CC1 (centres unmarked) 317

Give the reported value of IC50 for this record: CO/N=C/c1c(N)ncnc1N1CCN(C(=O)Nc2ccc(Cl)cc2)CC1 15600

Give the reported value of IC50 for this record: CO/N=C/c1c(N)ncnc1N1CCC(NC(=O)Nc2ccc(N3CCOCC3)cc2)C1 (centres unmarked) 32100

Give the reported value of IC50 for this record: CN1CCN(CCCOc2ccc3c(C4CCN(C(=O)Nc5cnc(N6CCCC6)nc5)CC4)ncnc3c2)CC1 200

Give the reported value of IC50 for this record: O=C(Nc1ccc(N2CCCC2)cc1)N1CCC(c2ncnc3cc(N4CC[C@H](O)C4)ccc23)CC1 3110

Give the reported value of IC50 for this record: COc1cc2ncnc(C3CCN(C(=O)Nc4ccc5[nH]ccc5c4)CC3)c2cc1OC 13300

Give the reported value of IC50 for this record: COc1cc2ncnc(N3CCC(NC(=O)Cc4ccc(C(C)C)cc4)CC3)c2cc1OC 11200

Give the reported value of IC50 for this record: CO/N=C/c1c(N)ncnc1N1CCC(OC(=O)Nc2ccc(C(C)C)cc2)CC1 23900

Give the reported value of IC50 for this record: CC(C)Oc1ccc(NC(=O)N2CCC(c3ncnc4cc(OCCCNS(C)(=O)=O)ccc34)CC2)cc1 500

Give the reported value of IC50 for this record: CC(Nc1ccn2ncc(-c3cn[nH]c3)c2n1)c1cc(F)ccc1OC(F)F (centres unmarked) 3.1

Give the reported value of IC50 for this record: COc1cc2ncnc(C3CCN(C(=O)Nc4ccc(N5CCN(C)CC5)cc4)CC3)c2cc1OC 39900

Give the reported value of IC50 for this record: CC(Nc1ccn2ncc(-c3cnn(C)c3)c2n1)c1cc(F)ccc1OCC1CC1 (centres unmarked) 6.7

Give the reported value of IC50 for this record: CO/N=C/c1c(N)ncnc1N1CCC(NC(=O)Nc2ccc(N3CCOCC3)cc2)CC1 15600

Give the reported value of IC50 for this record: Fc1ccc(Cc2ccc3[nH]nc(/C=C/c4ccccn4)c3c2)c(F)c1 375

Give the reported value of IC50 for this record: Fc1cc(F)cc(COc2ccc3[nH]nc(C#Cc4ccccn4)c3c2)c1 71.3

Give the reported value of IC50 for this record: CN1CCC(COc2ccc3c(C4CCN(C(=O)Nc5ccc(N6CCCC6)cc5)CC4)ncnc3c2)CC1 8900

Give the reported value of IC50 for this record: CO/N=C/c1c(N)ncnc1N1CCN(C(=O)Nc2ccc(C(C)C)cc2)CC1 1100

Give the reported value of IC50 for this record: CS(=O)(=O)OCCCOc1ccc2c(C3CCN(C(=O)Nc4ccc(N5CCOCC5)cc4)CC3)ncnc2c1 18900

Give the reported value of IC50 for this record: CO/N=C/c1c(N)ncnc1N1CCC(CC(=O)Nc2ccc(C(C)C)cc2)CC1 2160

Give the reported value of IC50 for this record: O=C1CCCN1CCCOc1ccc2c(C3CCN(C(=O)Nc4ccc(N5CCCC5)nc4)CC3)ncnc2c1 2700

Give the reported value of IC50 for this record: O=C(Nc1ccc(N2CCOCC2)cc1)N1CCC(c2ncnc3cc(N4CCC[C@H]4CO)ccc23)CC1 33800

Give the reported value of IC50 for this record: COc1cc2ncnc(C3CCN(C(=O)Cc4ccc(C(C)C)cc4)CC3)c2cc1OC 100
